System: LoVo
Experiment: Antiproliferative activity against human LoVo cells
Assay type: functional, cell-based
Label YES when IC50 is strictly below 200 nM; otherwise label NO.

Smiles Data: CC(C)CCNc1cccc(-c2ccnc3c(C(=O)c4cccs4)cnn23)c1
System Under Test: LoVo
Category Label: YES

Smiles Data: CC(C)CC(=O)Nc1ccc(-c2ccnc3c(C(=O)c4cccs4)cnn23)s1
System Under Test: LoVo
Category Label: NO

Smiles Data: CC(C)CC(=O)Nc1cc(-c2ccnc3c(C(=O)c4cccs4)cnn23)ccc1F
System Under Test: LoVo
Category Label: YES

Smiles Data: CC(C)CNC(=O)c1cccc(-c2ccnc3c(C(=O)c4cccs4)cnn23)c1
System Under Test: LoVo
Category Label: YES

Please check: IC50 for CC(C)NC(=O)Nc1cc(-c2ccnc3c(C(=O)c4cccs4)cnn23)ccc1F , strictly under 200 nM or not? YES
